Molecular target: Indoleamine 2,3-dioxygenase 2 (Homo sapiens) (UniProt Q6ZQW0)
Sequence (Q6ZQW0 whole entry): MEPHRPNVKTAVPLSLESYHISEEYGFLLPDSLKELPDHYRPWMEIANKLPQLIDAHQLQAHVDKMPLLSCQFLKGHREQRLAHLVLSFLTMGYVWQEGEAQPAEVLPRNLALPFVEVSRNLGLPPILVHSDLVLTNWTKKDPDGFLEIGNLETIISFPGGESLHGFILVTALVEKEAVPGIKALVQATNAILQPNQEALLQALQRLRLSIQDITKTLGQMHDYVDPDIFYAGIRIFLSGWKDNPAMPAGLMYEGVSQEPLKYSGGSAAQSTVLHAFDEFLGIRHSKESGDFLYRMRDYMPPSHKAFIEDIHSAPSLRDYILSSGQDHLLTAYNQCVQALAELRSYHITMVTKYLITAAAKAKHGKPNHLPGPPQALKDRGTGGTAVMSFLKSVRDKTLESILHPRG
Test: Inhibition of human recombinant IDO2 assessed as reduction in N-formylkynurenine formation using L-tryptophan as substrate at 1 uM preincubated for 30 mins followed by substrate addition and measured after 20 mins by SpectraMax microplate reader analysis
Details: time 50.0 min
The source made the active and inactive calls. The calls are words filed in the database; no cut-off is given here.
Experimental endpoint: inhibition

Short answer for "O=C(NCC1CC1)Nc1nonc1/C(=N/O)Nc1ccc(F)c(Br)c1" : inhibition was inactive

Sure, the documented inhibition for "O=C(Nc1nonc1/C(=N/O)Nc1ccc(F)c(Br)c1)N1CCCCC1" is inactive

// inhibition lookup, compound = "O=C(Nc1ccccc1)Nc1nonc1/C(=N/O)Nc1ccc(F)c(Br)c1" , result: inactive

What the record says about "COCCCNC(=O)Nc1nonc1/C(=N/O)Nc1ccc(F)c(Br)c1" : inhibition is inactive

The value of inhibition measured for the compound "CCCCNC(=O)Nc1nonc1/C(=N/O)Nc1ccc(F)c(Br)c1" turned out to be inactive

Others:
Recorded inhibition (compound "NS(=O)(=O)NCCNc1nonc1/C(=N/O)Nc1ccc(F)c(Br)c1" ): inactive

Summary for this compound, "O=C(NCC1CCCCC1)Nc1nonc1/C(=N/O)Nc1ccc(F)c(Br)c1" : inhibition is inactive

Reported inhibition ( "NCCCCNC(=O)Nc1nonc1/C(=N/O)Nc1ccc(F)c(Br)c1" ) = inactive

// field: inhibition; key: "O=C(Nc1ccc(Cl)cc1)Nc1nonc1/C(=N/O)Nc1ccc(F)c(Br)c1" ; value = inactive

Sample "O=C(Nc1ccc(F)cc1)Nc1nonc1/C(=N/O)Nc1ccc(F)c(Br)c1" ; inhibition observed: inactive

The measured inhibition associated with "COc1ccc(NC(=O)Nc2nonc2/C(=N/O)Nc2ccc(F)c(Br)c2)cc1OC" reads inactive

The compound listed as "COc1cccc(NC(=O)Nc2nonc2/C(=N/O)Nc2ccc(F)c(Br)c2)c1" has a reported inhibition of inactive
